measurementContext: rat, in vivo, sc, 50 mg/kg
e = 2'-O-(2-methoxyethyl) (MOE); d = 2'-deoxy (DNA)
In this section we review reported monocytes values for a set of substances.
propertyLabel: monocytes (%)

• ISIS 445509: 5-8-5 or 6-8-6 MOE microwalk gapmer (Table 44) (antisense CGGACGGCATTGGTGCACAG; sugars from the 5' end e6 d8 e6, backbone and methylation of C not given here) = 3.8
• ISIS 445504: 5-8-5 or 6-8-6 MOE microwalk gapmer (Table 44) (antisense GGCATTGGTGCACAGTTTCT; sugars from the 5' end e6 d8 e6, backbone and methylation of C not given here) = 2.0
• ISIS 445505: 5-8-5 or 6-8-6 MOE microwalk gapmer (Table 44) (antisense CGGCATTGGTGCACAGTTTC; sugars from the 5' end e6 d8 e6, backbone and methylation of C not given here) = 2.5
• ISIS 445513: 5-8-5 or 6-8-6 MOE microwalk gapmer (Table 44) (antisense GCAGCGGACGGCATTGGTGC; sugars from the 5' end e6 d8 e6, backbone and methylation of C not given here) = 3.5
• ISIS 445498: 5-8-5 or 6-8-6 MOE microwalk gapmer (Table 44) (antisense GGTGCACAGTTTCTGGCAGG; sugars from the 5' end e6 d8 e6, backbone and methylation of C not given here) = 2.0
• ISIS 445530: 5-8-5 or 6-8-6 MOE microwalk gapmer (Table 44) (antisense GCATTGGTGCACAGTTTC; sugars from the 5' end e5 d8 e5, backbone and methylation of C not given here) = 2.0

* * *

experiment: Tolerability in CD1 mice: body weight and organ weight (Example 43)
Type: in vivo
measurementContext: 50 mg/kg s.c. twice per week for 6 weeks, end of study
Strand notation (5' to 3'): a small letter for the sugar, then the base; units joined by * are phosphorothioate-linked, units joined directly phosphodiester-linked; [ ] holds rarer units or linkages, { } end groups; capitals alone tell only the bases. e = 2'-O-(2-methoxyethyl) (MOE); [5mC] = 5-methylcytosine; d = 2'-deoxy (DNA)
In this section we review reported Change in Kidney weight values for a set of substances.
propertyLabel: Change in Kidney weight (%)

• ISIS 449711: 3-8-3, 4-8-4, 2-10-2, 3-10-3 or 4-10-4 MOE microwalk gapmer (Table 46) (antisense eA*e[5mC]*dA*dG*dT*dT*dT*d[5mC]*dT*dG*dG*d[5mC]*eA*eG) = −12
• ISIS 449710: 3-8-3, 4-8-4, 2-10-2, 3-10-3 or 4-10-4 MOE microwalk gapmer (Table 46) (antisense e[5mC]*eA*e[5mC]*dA*dG*dT*dT*dT*d[5mC]*dT*dG*dG*d[5mC]*eA*eG*eG) = −7
• ISIS 449708: 3-8-3, 4-8-4, 2-10-2, 3-10-3 or 4-10-4 MOE microwalk gapmer (Table 46) (antisense eA*e[5mC]*eA*dG*dT*dT*dT*d[5mC]*dT*dG*dG*e[5mC]*eA*eG) = 0

* * *

In this section we review reported MCV values for a set of substances.
experiment: Hematology assays in cynomolgus monkeys (Example 46)
Format: in vivo
measurementContext: Day 17
Strand notation (5' to 3'): a small letter for the sugar, then the base; units joined by * are phosphorothioate-linked, units joined directly phosphodiester-linked; [ ] holds rarer units or linkages, { } end groups; capitals alone tell only the bases. e = 2'-O-(2-methoxyethyl) (MOE); [5mC] = 5-methylcytosine; d = 2'-deoxy (DNA)
propertyLabel: MCV (fL)

- ISIS 416858: MOE gapmer, nucleobases 1275 to 1318 of SEQ ID NO: 1 (Table 8) (antisense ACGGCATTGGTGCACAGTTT; MOE gapmer, wing and gap sizes not given here): 78
- ISIS 449709: 3-8-3, 4-8-4, 2-10-2, 3-10-3 or 4-10-4 MOE microwalk gapmer (Table 46) (antisense eG*e[5mC]*eA*e[5mC]*dA*dG*dT*dT*dT*d[5mC]*dT*dG*dG*d[5mC]*eA*eG*eG*e[5mC]): 73
- ISIS 445531: 5-8-5 or 6-8-6 MOE microwalk gapmer (Table 44) (antisense eG*eG*e[5mC]*eA*eT*dT*dG*dG*dT*dG*d[5mC]*dA*d[5mC]*eA*eG*eT*eT*eT): 75
- ISIS 449707: 3-8-3, 4-8-4, 2-10-2, 3-10-3 or 4-10-4 MOE microwalk gapmer (Table 46) (antisense e[5mC]*eA*e[5mC]*eA*dG*dT*dT*dT*d[5mC]*dT*dG*dG*e[5mC]*eA*eG*eG): 74
- ISIS 416850: MOE gapmer, nucleobases 1275 to 1318 of SEQ ID NO: 1 (Table 8) (antisense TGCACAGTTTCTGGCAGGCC; MOE gapmer, wing and gap sizes not given here): 76

* * *

Tested on: human Factor 11 mRNA
experiment: Antisense inhibition of human Factor 11 in HepG2 cells, lipofectin, 75 nM (Example 1)
Type: cell-based
measurementContext: 75 nM antisense oligonucleotide, ~24 h, relative to untreated control cells, gapmers targeted to SEQ ID NO: 1
Method: Antisense oligonucleotides targeted to a Factor 11 nucleic acid were tested for their effects on Factor 11 mRNA in vitro. […] After a treatment period of approximately 24 hours, RNA was isolated from the cells and Factor 11 mRNA levels were measured by quantitative real time PCR. Factor 11 mRNA levels were adjusted according to total RNA content, as measured by RIBOGREEN. […]
Strand notation (5' to 3'): a small letter for the sugar, then the base; units joined by * are phosphorothioate-linked, units joined directly phosphodiester-linked; [ ] holds rarer units or linkages, { } end groups; capitals alone tell only the bases. e = 2'-O-(2-methoxyethyl) (MOE); [5mC] = 5-methylcytosine; d = 2'-deoxy (DNA)
propertyLabel: % inhibition (%)

* 412262 (antisense eA*eA*eT*eG*eA*dG*dA*dT*dA*dA*dA*dT*dA*dT*dT*eT*eG*e[5mC]*eA*e[5mC]) [compound 412262] | 34
* 412227 (antisense eA*eG*eT*eA*eT*dT*dT*dT*dA*dG*dT*dT*dG*dG*dA*eG*eA*eT*e[5mC]*e[5mC]) [compound 412227] | 75
* 413490 (antisense e[5mC]*eT*eA*e[5mC]*e[5mC]*d[5mC]*d[5mC]*dA*dT*dA*dG*dA*dA*dA*d[5mC]*eA*eG*eT*eG*eA) [compound 413490] | 57
* 412243 (antisense eT*eT*e[5mC]*e[5mC]*eA*dG*dT*dT*dT*d[5mC]*dA*dA*d[5mC]*dA*dA*eG*eG*e[5mC]*eA*eA) [compound 412243] | 70

* * *

Design: species or system Sprague-Dawley rats
measurementContext: rat, in vivo, sc, 20 mg/kg
In this section we review reported Half-life of ISIS oligonucleotides in the liver and kidney values for a set of substances.
propertyLabel: Half-life of ISIS oligonucleotides in the liver and kidney (days)

- 416851 (antisense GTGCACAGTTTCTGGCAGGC; 5-10-5 gapmer, further chemistry not given here) [compound 416851]: 24
- 416848 (antisense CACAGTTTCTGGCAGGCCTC; 5-10-5 gapmer, further chemistry not given here) [compound 416848]: 24
- 416861 (antisense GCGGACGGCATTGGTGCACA; 5-10-5 gapmer, further chemistry not given here) [compound 416861]: 25

* * *

measurementContext: mouse, in vivo, sc, 50 mg/kg
e = 2'-O-(2-methoxyethyl) (MOE); d = 2'-deoxy (DNA)
In this section we review reported BUN values for a set of substances.
propertyLabel: BUN (mg/dL)

- ISIS 416863: MOE gapmer, nucleobases 1275 to 1318 of SEQ ID NO: 1 (Table 8) (antisense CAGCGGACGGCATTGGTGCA; MOE gapmer, wing and gap sizes not given here): 22
- ISIS 413482: 5-10-5 MOE gapmer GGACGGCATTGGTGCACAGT (sugars from the 5' end e5 d10 e5, backbone and methylation of C not given here): 27
- ISIS 416849: MOE gapmer, nucleobases 1275 to 1318 of SEQ ID NO: 1 (Table 8) (antisense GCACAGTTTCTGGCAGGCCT; MOE gapmer, wing and gap sizes not given here): 23
- ISIS 416857: MOE gapmer, nucleobases 1275 to 1318 of SEQ ID NO: 1 (Table 8) (antisense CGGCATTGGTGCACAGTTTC; MOE gapmer, wing and gap sizes not given here): 17
- ISIS 416856: MOE gapmer, nucleobases 1275 to 1318 of SEQ ID NO: 1 (Table 8) (antisense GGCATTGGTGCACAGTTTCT; MOE gapmer, wing and gap sizes not given here): 21

* * *

System: human Factor 11 mRNA
experiment: Antisense inhibition of human Factor 11 in HepG2 cells, electroporation, 8,000 nM (Example 30)
Format: cell-based
measurementContext: electroporation, 8,000 nM antisense oligonucleotide
Strand notation (5' to 3'): a small letter for the sugar, then the base; units joined by * are phosphorothioate-linked, units joined directly phosphodiester-linked; [ ] holds rarer units or linkages, { } end groups; capitals alone tell only the bases. e = 2'-O-(2-methoxyethyl) (MOE); [5mC] = 5-methylcytosine; d = 2'-deoxy (DNA)
propertyLabel: Percent inhibition of human Factor 11 mRNA levels

- 445525 (antisense eG*eG*eT*eG*e[5mC]*dA*d[5mC]*dA*dG*dT*dT*dT*d[5mC]*eT*eG*eG*e[5mC]*eA) [compound 445525]: 85%
- 416825 (antisense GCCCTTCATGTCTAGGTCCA; 5-10-5 gapmer, further chemistry not given here) [compound 416825]: 90%
- 412224 (antisense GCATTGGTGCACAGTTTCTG; 5-10-5 MOE gapmer, further chemistry not given here) [compound 412224]: 84%
- 445494 (antisense e[5mC]*eA*e[5mC]*eA*eG*eT*dT*dT*d[5mC]*dT*dG*dG*d[5mC]*dA*eG*eG*e[5mC]*e[5mC]*eT*e[5mC]) [compound 445494]: 85%
- 416851 (antisense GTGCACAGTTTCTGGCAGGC; 5-10-5 gapmer, further chemistry not given here) [compound 416851]: 89%
- 445521 (antisense e[5mC]*eA*e[5mC]*eA*eG*dT*dT*dT*d[5mC]*dT*dG*dG*d[5mC]*eA*eG*eG*e[5mC]*e[5mC]) [compound 445521]: 87%
- 445532 (antisense e[5mC]*eG*eG*e[5mC]*eA*dT*dT*dG*dG*dT*dG*d[5mC]*dA*e[5mC]*eA*eG*eT*eT) [compound 445532]: 89%
- 416866 (antisense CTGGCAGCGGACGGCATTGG; 5-10-5 gapmer, further chemistry not given here) [compound 416866]: 84%
- 445497 (antisense eG*eT*eG*e[5mC]*eA*e[5mC]*dA*dG*dT*dT*dT*d[5mC]*dT*dG*eG*e[5mC]*eA*eG*eG*e[5mC]) [compound 445497]: 81%
- 445543 (antisense e[5mC]*eT*eG*eG*e[5mC]*dA*dG*d[5mC]*dG*dG*dA*d[5mC]*dG*eG*e[5mC]*eA*eT*eT) [compound 445543]: 74%
- 445536 (antisense e[5mC]*eG*eG*eA*e[5mC]*dG*dG*d[5mC]*dA*dT*dT*dG*dG*eT*eG*e[5mC]*eA*e[5mC]) [compound 445536]: 82%
- 445531 (antisense eG*eG*e[5mC]*eA*eT*dT*dG*dG*dT*dG*d[5mC]*dA*d[5mC]*eA*eG*eT*eT*eT) [compound 445531]: 90%
